# run description: Pharmacokinetics and oral bioavailability of D11.2 in male SD rats (IV, PO, SQ)
# Assay type: in vivo
# settings: rat, in vivo, iv, 1 mg/kg, IV 1 mg/kg, individual rats R1, R2, R3
Where a SMILES comes first, the peptide text is derived from it. [ ]: non-standard residue; d: D form. NMeL = CN[C@@H](CC(C)C)C(=O)O; Sar = CNCC(=O)O

molecule | reading unit | MRT inf
CC[C@@H](C)[C@H]1NC(=O)[C@@H]2CCCN2C(=O)[C@@H]([C@H](C)CC)NC(=O)CN(C)C(=O)[C@H](CC(C)C)NC(=O)[C@@H](Cc2ccccc2)NC(=O)[C@H](CC(C)C)N(C)C(=O)[C@H]2CCCN2C(=O)[C@@H](CC(C)C)NC(=O)[C@H](CC(C)C)NC(=O)[C@H]2CCCN2C1=O [Design D11.2] (cyclo(L[Sar][dI]P[dI][dP]L[dL][dP][NMeL][dF])) | h | 2.18
